# assay_system: DGKα (Homo sapiens, UniProt P23743)
# Sequence (P23743 whole entry): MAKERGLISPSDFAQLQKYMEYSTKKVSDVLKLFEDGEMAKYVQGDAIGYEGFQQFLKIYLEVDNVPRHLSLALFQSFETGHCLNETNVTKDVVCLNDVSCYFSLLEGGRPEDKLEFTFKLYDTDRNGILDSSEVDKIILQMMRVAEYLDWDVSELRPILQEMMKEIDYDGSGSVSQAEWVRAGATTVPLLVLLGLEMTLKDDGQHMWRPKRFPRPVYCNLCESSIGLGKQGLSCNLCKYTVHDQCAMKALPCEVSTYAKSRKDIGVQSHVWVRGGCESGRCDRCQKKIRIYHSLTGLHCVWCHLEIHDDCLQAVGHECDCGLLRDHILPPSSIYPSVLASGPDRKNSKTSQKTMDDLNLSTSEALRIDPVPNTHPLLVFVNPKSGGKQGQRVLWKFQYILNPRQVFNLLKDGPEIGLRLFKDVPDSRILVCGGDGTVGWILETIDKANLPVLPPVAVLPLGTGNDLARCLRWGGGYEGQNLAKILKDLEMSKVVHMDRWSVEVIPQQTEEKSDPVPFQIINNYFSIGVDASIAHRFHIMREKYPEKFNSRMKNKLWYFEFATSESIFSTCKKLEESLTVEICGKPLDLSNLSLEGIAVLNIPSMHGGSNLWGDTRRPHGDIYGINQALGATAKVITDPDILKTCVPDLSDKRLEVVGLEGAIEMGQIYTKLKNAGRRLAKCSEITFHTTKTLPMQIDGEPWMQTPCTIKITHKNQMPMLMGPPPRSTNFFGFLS
pIC50: −log10 of the molar value.
Entries annotated with measured pIC50

Kindly state the measured pIC50 obtained for COc1cc(N(CC2CC2)[C@H]2CC[C@H](N(C)c3cc(=O)n(C)c4ccc(C#N)nc34)CC2)cc(F)c1F [Example 95] with DGKα (Homo sapiens, UniProt P23743). ≤ 6.00

Kindly state the measured pIC50 obtained for Cc1cc(F)ccc1N(CC1CCCO1)C1CCC(N(C)c2c(C#N)c(=O)n(C)c3ccc(C#N)nc23)CC1 (stereo in doubt) [Example 153] with DGKα (Homo sapiens, UniProt P23743). 6.00 to 7.00

Kindly state the measured pIC50 obtained for Cc1cc(F)ccc1N(CC1CC1)[C@H]1CC[C@H](N(C)c2c(C#N)c(=O)n(C)c3ccc(C#N)nc23)CC1 [Example 73] with DGKα (Homo sapiens, UniProt P23743). 7.00 to 8.00

Kindly state the measured pIC50 obtained for Cn1c(=O)cc(N(C)[C@H]2CC[C@@H](N(CC3CCC3)c3ccc(F)cc3)CC2)c2nc(C#N)ccc21 [Example 43] with DGKα (Homo sapiens, UniProt P23743). > 8.00

Kindly state the measured pIC50 obtained for Cn1c(=O)c(C#N)c(N(C)[C@H]2CC[C@@H](N(CC3COC3)c3ccc(F)cc3)CC2)c2nc(Cl)ccc21 [Example 3M] with DGKα (Homo sapiens, UniProt P23743). 7.00 to 8.00

Kindly state the measured pIC50 obtained for Cn1c(=O)cc(N(C)[C@H]2CC[C@@H](N(CC3CC3)c3cc(F)cc(F)c3)CC2)c2nc(C#N)ccc21 [Example 82] with DGKα (Homo sapiens, UniProt P23743). 7.00 to 8.00

Kindly state the measured pIC50 obtained for COc1cc(F)ccc1N(CC1CC1)[C@H]1CC[C@@H](N(C)c2c(C#N)c(=O)n(C)c3cccnc23)CC1 [Example 9] with DGKα (Homo sapiens, UniProt P23743). ≤ 6.00

====

pIC50: −log10 of the molar value.
DGKα (Homo sapiens) data, read-out pIC50

Example entries begin here.
What pIC50 value was documented for this molecule, `CN1C(=O)CN([C@H]2CC[C@@H](N(CC3CC3)c3ccccc3)CC2)c2nc(C#N)ccc21` ? 6.00 to 7.00

What pIC50 value was documented for this molecule, `Cc1[nH]c2ccccc2c1C(=O)N[C@H]1CC[C@@H](N(CC2CC2)c2ccccc2)CC1` ? ≤ 6.00

What pIC50 value was documented for this molecule, `COc1cccc(N(CC2CC2)[C@H]2CC[C@H](N(C)c3c(C#N)c(=O)n(C)c4ccc(C#N)nc34)CC2)c1` ? 6.00 to 7.00

What pIC50 value was documented for this molecule, `Cn1c(=O)c(C#N)c(N(C)[C@H]2CC[C@@H](N(CC3CC3)c3cccc(F)c3)CC2)c2nc(C#N)ccc21` ? 7.00 to 8.00

What pIC50 value was documented for this molecule, `Cn1c(=O)c(C#N)c(N(C)[C@H]2CC[C@@H](N(C[C@@H]3CCOC3)c3ccc(F)cc3)CC2)c2nc(C#N)ccc21` ? 7.00 to 8.00

---
What pIC50 value was documented for this molecule, `COc1cc(F)ccc1N(C1CC1)[C@H]1CC[C@@H](N(C)c2c(C#N)c(=O)n(C)c3ccc(Cl)nc23)CC1` ? 6.00 to 7.00

What pIC50 value was documented for this molecule, `Cc1ccc(N(CC2CCC2)[C@H]2CC[C@@H](N(C)c3c(C#N)c(=O)n(C)c4ccc(C#N)nc34)CC2)cc1` ? > 8.00

What pIC50 value was documented for this molecule, CN(c1c(C#N)c(=O)n(C)c2ccc(C#N)nc12)C1CCC(N(CC2CCC2)c2ccc(CN3CCOCC3)cc2)CC1 (single isomer, unassigned) ? 7.00 to 8.00

Values compiled from patent US20230271954A1.
